# tested on: HIV-1 RT V106A (Human immunodeficiency virus type 1 group M subtype B, UniProt P03366, V705A)
# Construct: an HIV RT clone pKRT2 containing only the RT p66 gene regulated by the lac operon/trc promoter
# assay procedure: Reverse transcriptase (RT) assay, V106A mutant
outcome measure: IC50

Here's what some known entries look like.
- molecule: "Cc1cc(F)nc2c1NC(=O)c1cc(CCOc3ccnc4ccccc34)cnc1N2C1CC1 [compound 5]"
  IC50: "61 nM"
- molecule: "Cc1ccnc2c1NC(=O)c1cc(CCOc3ccnc4ccccc34)cnc1N2C1CC1 [compound 3]"
  IC50: "79 nM"
- molecule: "CCN1c2ncc(CCOc3cc[n+]([O-])c4ccccc34)cc2C(=O)N(C)c2cccnc21 [compound 21]"
  IC50: "1110 nM"

Prompt: Please look at this molecule and report its IC50: CCN1c2ncc(CCOc3cc[n+]([O-])c4ccccc34)cc2C(=O)N(C)c2ccc(Cl)nc21 [compound 17]
Response: 319 nM
